The reported numbers originate from patent US20240228562A1.

Field: pEC50. Provide a value for each of the binders that follow.
- assay.target: T1, recombinant human CTGF protein (R&D Systems, SEQ ID NO: 79) (human, UniProt P29279 27-349)
- T1 construct: Bought; also called human CTGF/CNN2; huCTGF
- T1 sequence: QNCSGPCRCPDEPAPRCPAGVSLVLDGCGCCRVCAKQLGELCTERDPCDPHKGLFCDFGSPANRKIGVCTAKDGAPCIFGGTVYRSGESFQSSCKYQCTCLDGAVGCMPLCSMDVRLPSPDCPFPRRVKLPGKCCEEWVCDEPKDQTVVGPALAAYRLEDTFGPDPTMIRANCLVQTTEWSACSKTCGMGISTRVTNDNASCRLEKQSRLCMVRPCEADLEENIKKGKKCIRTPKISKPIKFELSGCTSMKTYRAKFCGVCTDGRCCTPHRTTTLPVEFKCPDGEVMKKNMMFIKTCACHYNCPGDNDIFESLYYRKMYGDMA
- test.method.notes: ELISA, coated human CTGF
Worth noting: pEC50 values are minus log10 of concentrations stated in mol/L.

Input: What value of measured pEC50 is listed for fusion protein of SEQ ID NO: 66 (designed binder) QDSTSDLIPAPPLSKVPLQQNFQDNQFHGKWYVVGLAGNKILRIDKQPAKMFATIYELKEDKSYDVTSVRFEARSCSYTIKTFVPGSQPGEFTAGNIKSAPGQTSTLVRVVSTNYNQHAMVFFKHVSQNRETFVITLYGRTKELTSELKENFIRFSKSLGLPENHIVFPVPIDQCIDGGGGGSGGGGSGGGGSQDSTSDLIPAPPLSKVPLQQNFQDNQFHGKWYVVGRAGNNRLREDKDPPKMWATIYELKEDKSYDVTHVHFMTKKCRYIIDTFVPGSQPGEFTLGAIKSGPGMTSPLVRIVSTNYNQHAMVFFKWVNQNREWFTITLYGRTKELTSELKENFIRFSKSLGLPENHIVFPVPIDQCIDG ?
Output: 8.92

Input: Field request: pEC50 | item: fusion protein of SEQ ID NO: 74 (designed binder, not shown: C-terminal His-tag) QDSTSDLIPAPPLSKVPLQQNFQDNQFQGKWYVVGLAGNAILREDKQPAKMFATIYELKEDKSYDVTSVRFEAKSCKYTIKTFVPGSQPGEFTAGYIKSAPGQTSTLVRVVSTNYNQHAMVFFKHVTQNREIFVITLYGRTKELTSELKENFIRFSKSLGLPENHIVFPVPIDQCIDGGGGGSGGGGSGGGGSQDSTSDLIPAPPLSKVPLQQNFQDNQFQGKWYVVGWAGNVKLREDKQPQKMSATIYELKEDKSYDVTEVVFEQKKCHYIIKTFVPGSQPGEFTAGDIKSPPGYTSSLVRVVSTNYNQHAMVFFKKVSQNREFFWITLYGRTKELTSELKENFIRFSKSLGLPENHIVFPVPIDQCIDG
Output: 9.59

Input: Recorded pEC50 for fusion protein of SEQ ID NO: 67 (designed binder) QDSTSDLIPAPPLSKVPLQQNFQDNQFHGKWYVVGLAGNKILRIDKQPAKMFATIYELKEDKSYDVTSVRFEARSCSYTIKTFVPGSQPGEFTAGNIKSAPGQTSTLVRVVSTNYNQHAMVFFKHVSQNRETFVITLYGRTKELTSELKENFIRFSKSLGLPENHIVFPVPIDQCIDGGGGGSGGGGSGGGGSQDSTSDLIPAPPLSKVPLQQNFQDNQFHGKWYVVGWAGNIKLREDKDPFKMSATIYELKEDKSYDVTEVVFEQKKCHYIIKTFVPGSQPGEFTLGDIKSPPGETSSLVRVVSTNYNQHAMVFFKKVFQNREFFWITLYGRTKELTSELKENFIRFSKSLGLPENHIVFPVPIDQCIDG , please?
Output: 9.00

Input: # input binder: fusion protein of SEQ ID NO: 65 (designed binder) QDSTSDLIPAPPLSKVPLQQNFQDNQFHGKWYVVGRAGNNRLREDKDPPKMWATIYELKEDKSYDVTHVHFMTKKCRYIIDTFVPGSQPGEFTLGAIKSGPGMTSPLVRIVSTNYNQHAMVFFKWVNQNREWFTITLYGRTKELTSELKENFIRFSKSLGLPENHIVFPVPIDQCIDGGGGGSGGGGSGGGGSQDSTSDLIPAPPLSKVPLQQNFQDNQFHGKWYVVGLAGNKILRIDKQPAKMFATIYELKEDKSYDVTSVRFEARSCSYTIKTFVPGSQPGEFTAGNIKSAPGQTSTLVRVVSTNYNQHAMVFFKHVSQNRETFVITLYGRTKELTSELKENFIRFSKSLGLPENHIVFPVPIDQCIDG ; wanted: its pEC50
Output: 9.21

Input: // lookup pEC50 for fusion protein of SEQ ID NO: 76 (designed binder, not shown: C-terminal His-tag) QDSTSDLIPAPPLSKVPLQQNFQDNQFQGKWYVVGLAGNAILREDKQPAKMFATIYELKEDKSYDVTSVRFEAKSCKYTIKTFVPGSQPGEFTAGYIKSAPGQTSTLVRVVSTNYNQHAMVFFKHVTQNREIFVITLYGRTKELTSELKENFIRFSKSLGLPENHIVFPVPIDQCIDGGGGGSGGGGSGGGGSQDSTSDLIPAPPLSKVPLQQNFQDNQFQGKWYVVGWAGNVKLREDKQPLKMSATIYELKEDKSYDVTEVVFEQKKCHYIIKTFVPGSQPGEFTAGDIKSPPGYTSSLVRVVSTNYNQHAMVFFKKVSQNREFFWITLYGRTKELTSELKENFIRFSKSLGLPENHIVFPVPIDQCIDG
Output: 9.62
